Target: NRAS WT (Homo sapiens, UniProt P01111+P62937)
Sequence (P01111 whole entry): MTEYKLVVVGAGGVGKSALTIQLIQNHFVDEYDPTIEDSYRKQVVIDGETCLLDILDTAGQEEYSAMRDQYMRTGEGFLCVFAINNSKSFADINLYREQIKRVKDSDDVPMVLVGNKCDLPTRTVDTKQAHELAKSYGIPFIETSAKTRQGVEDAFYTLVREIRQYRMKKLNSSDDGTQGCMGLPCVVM
Sequence (P62937 whole entry): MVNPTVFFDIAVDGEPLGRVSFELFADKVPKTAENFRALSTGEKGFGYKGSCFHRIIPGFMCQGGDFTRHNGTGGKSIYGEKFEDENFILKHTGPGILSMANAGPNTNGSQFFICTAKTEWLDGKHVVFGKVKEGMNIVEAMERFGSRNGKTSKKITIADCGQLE
Assay: Disruption of BRAF RBD interaction with Ras (FRET / MOA assay, with Cyclophilin A)
Format: biochemical
Settings: NRAS WT; read-out: NRAS WT FRET data IC50
Overview of reported IC50 across a group of compounds:

COMPOUND: CCn1c(-c2cc(N3CCN(C)CC3)cnc2[C@H](C)OC)c2c3cc(ccc31)-c1cccc(c1)C[C@H](NC(=O)[C@H](C(C)C)N(C)C(=O)[C@@H]1OCC[C@@H]1c1ccccc1)C(=O)N1CCC[C@H](N1)C(=O)OCC(C)(C)C2 (atropisomer, axis not shown)
IC50: 10 to 100 nM

Now for the compound whose IC50 we want.
Annotate the compound "CCn1c(-c2cnccc2COC)c2c3cc(ccc31)-c1cc(O)cc(c1)C[C@H](NC(=O)[C@H](C(C)C)N(C)S(C)(=O)=O)C(=O)N1CCC[C@H](N1)C(=O)OCC(C)(C)C2" with its measured IC50.
1000 to 10000 nM

// data source = patent US20230233569A1
